# tested on: DNA
# measurement protocol: Binding affinity to Ds26 duplex DNA (unknown origin) assessed as dissociation constant by ITC analysis
readout type: pKd
Reminder that pKd is minus the log10 of a molar concentration.

In plain terms, C[n+]1c(/C=C/c2c[nH]c3ccccc23)cc(/C=C2\Sc3ccccc3N2CCCN2CCC(C(F)(F)F)CC2)c2ccccc21.[I-] has a documented pKd of 4.72

====

# tested on: Quadruplex DNA
# measurement protocol: Binding affinity to c-MYC Pu27 G4 DNA (unknown origin) assessed as dissociation constant by ITC analysis
# Format: nucleic-acid assay
readout type: pKd
Reminder that pKd is minus the log10 of a molar concentration.

Known value: Quadruplex DNA pKd of the compound C[n+]1c(/C=C/c2c[nH]c3ccccc23)cc(/C=C2\Sc3ccccc3N2CCCN2CCC(C(F)(F)F)CC2)c2ccccc21.[I-] equals 4.83

====

# Test system: MDA-MB-231
# measurement protocol: Cytotoxicity against human MDA-MB-231 cells assessed as inhibition of cell growth incubated for 48 hrs in presence of TBHP by MTT assay
# Type: functional, cell-based
# setup conditions: MDA-MB-231, 48 h
readout type: pIC50
Reminder that pIC50 is minus the log10 of a molar concentration.

Known value: MDA-MB-231 pIC50 of the compound C[n+]1c(/C=C/c2c[nH]c3ccccc23)cc(/C=C2\Sc3ccccc3N2CCCN2CCC(C(F)(F)F)CC2)c2ccccc21.[I-] equals 6.17

====

Recorded IC50 at 48 h, one value per entry.
# measurement protocol: Cytotoxicity against human HK-2 cells assessed as inhibition of cell growth incubated for 48 hrs by MTT assay
# Format: toxicity, cell-based
Give the quantity in µM, number only.

chemical smiles: CCN(CC)CCCN1/C(=C/c2cc(/C=C/c3cc4ccccc4[nH]3)[n+](C)c3ccccc23)Sc2ccccc21
result value: 9.5
--
chemical smiles: C[n+]1c(/C=C/c2cc3ccccc3[nH]2)cc(/C=C2\Sc3ccccc3N2CCCN2CCOCC2)c2ccccc21
result value: 9.5
--
chemical smiles: C[n+]1c(/C=C/c2c[nH]c3ccccc23)cc(/C=C2\Sc3ccccc3N2CCCN2CCCCC2)c2ccccc21
result value: 5.4

Now consider the entry below.
In plain terms, CC1CCN(CCCN2/C(=C/c3cc(/C=C/c4cc5ccccc5[nH]4)[n+](C)c4ccccc34)Sc3ccccc32)CC1 has a documented IC50 at 48 h of 6.3

====

# tested on: Quadruplex DNA
# measurement protocol: Binding affinity to Bcl-2 G4 DNA (unknown origin) assessed as dissociation constant by ITC analysis
# Assay type: nucleic-acid assay
readout type: pKd
Reminder that pKd is minus the log10 of a molar concentration.

In plain terms, C[n+]1c(/C=C/c2c[nH]c3ccccc23)cc(/C=C2\Sc3ccccc3N2CCCN2CCC(C(F)(F)F)CC2)c2ccccc21.[I-] has a documented pKd of 5.44

====

# measurement protocol: Cytotoxicity against human HK-2 cells assessed as inhibition of cell growth incubated for 48 hrs by MTT assay
# Assay type: toxicity, cell-based
// boundary case: IC50 at 48 h equal to 6 µM maps to FALSE; strictly smaller maps to TRUE

chemical smiles: C[n+]1c(/C=C/c2c[nH]c3ccccc23)cc(/C=C2\Sc3ccccc3N2CCCN2CCC(C(F)(F)F)CC2)c2ccccc21.[I-]
assigned class: FALSE
--
chemical smiles: C[n+]1c(/C=C/c2c[nH]c3ccccc23)cc(/C=C2\Sc3ccccc3N2CCCN2CCOCC2)c2ccccc21
assigned class: TRUE
--
chemical smiles: CC1CCN(CCCN2/C(=C/c3cc(/C=C/c4c[nH]c5ccccc45)[n+](C)c4ccccc34)Sc3ccccc32)CC1
assigned class: TRUE
--
chemical smiles: C[n+]1c(/C=C/c2cc3ccccc3[nH]2)cc(/C=C2\Sc3ccccc3N2CCCN2CCC(C(F)(F)F)CC2)c2ccccc21
assigned class: FALSE
--
chemical smiles: C[n+]1c(/C=C/c2cc3ccccc3[nH]2)cc(/C=C2\Sc3ccccc3N2CCCN2CCCCC2)c2ccccc21
assigned class: FALSE

Now for another entry.
Find out if reported IC50 at 48 h for CCN(CC)CCCN1/C(=C/c2cc(/C=C/c3c[nH]c4ccccc34)[n+](C)c3ccccc23)Sc2ccccc21 is less than 6 µM TRUE

====

# tested on: Quadruplex DNA
# measurement protocol: Binding affinity to CKIT-2 G4 DNA (unknown origin) assessed as dissociation constant by ITC analysis
# Format: nucleic-acid assay
readout type: Kd

In plain terms, C[n+]1c(/C=C/c2c[nH]c3ccccc23)cc(/C=C2\Sc3ccccc3N2CCCN2CCC(C(F)(F)F)CC2)c2ccccc21.[I-] has a documented Kd of 6.8 µM

====

# System: PC-3
# measurement protocol: Cytotoxicity against telomerase-positive human PC-3 cells assessed as inhibition of cell growth incubated for 48 hrs by MTT assay
# Type: functional, cell-based
# setup conditions: PC-3, 48 h
readout type: pIC50
Reminder that pIC50 is minus the log10 of a molar concentration.

Record excerpt, results attached:
chemical smiles: C[n+]1c(/C=C/c2cc3ccccc3[nH]2)cc(/C=C2\Sc3ccccc3N2CCCN2CCCCC2)c2ccccc21
readout type: pIC50
result value: 5.48
//
chemical smiles: CCN(CC)CCCN1/C(=C/c2cc(/C=C/c3c[nH]c4ccccc34)[n+](C)c3ccccc23)Sc2ccccc21
readout type: pIC50
result value: 5.27

Known value: PC-3 pIC50 of the compound C[n+]1c(/C=C/c2cc3ccccc3[nH]2)cc(/C=C2\Sc3ccccc3N2CCCN2CCOCC2)c2ccccc21 equals 5.32

Known value: PC-3 pIC50 of the compound CC1CCN(CCCN2/C(=C/c3cc(/C=C/c4c[nH]c5ccccc45)[n+](C)c4ccccc34)Sc3ccccc32)CC1 equals 5.62

Known value: PC-3 pIC50 of the compound C[n+]1c(/C=C/c2c[nH]c3ccccc23)cc(/C=C2\Sc3ccccc3N2CCCN2CCC(C(F)(F)F)CC2)c2ccccc21.[I-] equals 5.60

Known value: PC-3 pIC50 of the compound C[n+]1c(/C=C/c2cc3ccccc3[nH]2)cc(/C=C2\Sc3ccccc3N2CCCN2CCC(C(F)(F)F)CC2)c2ccccc21 equals 5.41
